- targetEntity: Hepatocyte growth factor receptor (Homo sapiens)
- Sequence (P08581 whole entry): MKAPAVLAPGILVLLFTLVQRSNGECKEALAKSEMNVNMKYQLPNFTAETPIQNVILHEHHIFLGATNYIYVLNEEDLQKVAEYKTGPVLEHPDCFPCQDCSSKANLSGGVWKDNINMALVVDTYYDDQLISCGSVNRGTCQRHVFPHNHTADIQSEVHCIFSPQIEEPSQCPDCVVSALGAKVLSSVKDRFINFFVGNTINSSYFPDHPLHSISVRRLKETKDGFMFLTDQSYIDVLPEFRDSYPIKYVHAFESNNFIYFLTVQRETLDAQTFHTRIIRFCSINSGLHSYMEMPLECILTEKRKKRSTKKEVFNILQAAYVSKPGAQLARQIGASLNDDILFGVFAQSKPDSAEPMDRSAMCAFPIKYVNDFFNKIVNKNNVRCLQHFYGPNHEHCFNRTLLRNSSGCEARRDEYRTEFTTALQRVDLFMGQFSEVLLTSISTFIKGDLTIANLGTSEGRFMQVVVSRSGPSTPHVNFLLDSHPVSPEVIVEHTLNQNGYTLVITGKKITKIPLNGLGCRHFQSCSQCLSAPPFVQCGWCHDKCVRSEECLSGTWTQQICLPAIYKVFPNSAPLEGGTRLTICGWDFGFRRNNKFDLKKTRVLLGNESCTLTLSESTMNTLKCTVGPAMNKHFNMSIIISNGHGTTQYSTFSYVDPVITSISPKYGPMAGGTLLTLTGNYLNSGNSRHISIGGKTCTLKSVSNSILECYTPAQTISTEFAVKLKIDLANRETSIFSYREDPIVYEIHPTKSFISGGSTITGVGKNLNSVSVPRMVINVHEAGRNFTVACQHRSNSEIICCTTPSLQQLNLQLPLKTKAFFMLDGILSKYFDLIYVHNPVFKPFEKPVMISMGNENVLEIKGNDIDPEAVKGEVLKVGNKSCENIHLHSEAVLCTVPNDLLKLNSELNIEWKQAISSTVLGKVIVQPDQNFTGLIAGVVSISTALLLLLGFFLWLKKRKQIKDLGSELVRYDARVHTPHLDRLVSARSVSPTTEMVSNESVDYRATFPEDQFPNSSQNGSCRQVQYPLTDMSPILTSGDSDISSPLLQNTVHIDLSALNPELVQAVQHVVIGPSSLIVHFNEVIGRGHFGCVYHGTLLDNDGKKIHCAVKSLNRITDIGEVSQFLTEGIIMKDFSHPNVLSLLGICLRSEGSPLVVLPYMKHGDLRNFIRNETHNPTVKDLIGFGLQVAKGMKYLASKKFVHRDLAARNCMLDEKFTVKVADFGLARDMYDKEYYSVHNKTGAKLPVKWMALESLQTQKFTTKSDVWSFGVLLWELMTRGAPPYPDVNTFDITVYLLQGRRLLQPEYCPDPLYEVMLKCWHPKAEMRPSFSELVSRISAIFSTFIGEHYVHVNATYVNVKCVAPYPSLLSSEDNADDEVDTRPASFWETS
outcomeMeasure: pIC50
Hey, just a heads up that pIC50 is the negative log base 10 of the concentration in molar.

Q: Report the value of pIC50 obtained on Hepatocyte growth factor receptor (Homo sapiens) for "CN1CCN(CCCCOc2c(OCc3ccc(C#N)cc3)cc(O)c3c(=O)cc(-c4ccccc4)oc23)CC1" .
Result: 4.46

---

- methodNotes: Selectivity index, ratio of IC50 for human LO2 cells to IC50 for mouse B16 cells
- Format: toxicity
- protocolConditions: LO2 cells versus B16 cells, read-out: Ratio IC50
outcomeMeasure: selectivity ratio

Q: Output measured selectivity ratio for this item: "CN1CCN(CCCCOc2c(OCc3ccc(C#N)cc3)cc(O)c3c(=O)cc(-c4ccccc4)oc23)CC1"
Result: 4.3 to 27
